Each entry below carries its reported GI50.
# System: MDA-MB-468 breast
# test_details: NCI tumour cell line growth inhibition, 48 h

Request: GET /values?readout=GI50&system=MDA-MB-468 breast&item= CN[C@H]1CN(c2ccc3c(=O)c(C(=O)O)cn(-c4nccs4)c3n2)C[C@@H]1OC
Response: 0.822 µM

###

# Tested on: MDA-MB-468 breast
# test_details: NCI tumour cell line growth inhibition, 48 h; in the data active = GI50 below about 0.43 µM; inactive = the rest
I would appreciate it if you answered using one of these outcomes: true for active, false for inactive

Solved entries:
# compound, subject_of_test, class_name
rows = [
    ("COc1cc2c(c(OC)c1OC)-c1ccc(OC)c(=O)cc1C(NC(=O)COc1ccccc1)CC2 (centres undefined)", "MDA-MB-468 breast", "true"),
    ("CC[C@H](C)[C@H](NC(=O)[C@H]1CCCCN1C)C(=O)N(C)[C@H](C[C@@H](OC(C)=O)c1cccc(C(=O)N[C@@H](Cc2ccccc2)C[C@H](C)C(=O)OC)n1)C(C)C", "MDA-MB-468 breast", "true"),
]

Request: What did the test return for CCCCCCCCCCCCCCCC1=NCC[N+]1(CCO)CCO ?
Response: false

Request: // same read-out, input: CCOC(=O)C1=CCCC[C@H]1S(=O)(=O)Nc1ccc(F)cc1Cl
Response: false
